Tested on: IgM-induced Akt phosphorylation in B cell in the presence of whole blood
ASSAY_DETAILS: IgM-induced Akt phosphorylation in B cell in the presence of whole blood
Assay type: cell-based
CONDITION_DETAILS: Homo sapiens, CD19+ IgM+ cells, read-out: IC50 μM, inhibition of IgM-induced Akt phosphorylation in the presence of whole blood
Procedure: 100 μl of blood are pre-incubated in falcon tube (352063) for 20 minutes at 37° C. For B cell activation 100 μl of Fab′2 Goat anti Human IgM (30 ug/mL final) is added to each tube and cells are maintained at 37° C. After 5 minutes, cell activation is stopped with 130 μl Formaldehyde 10% (4% final) and cells are left 10 minutes at room temperature. Fixed cells are then treated 30 minutes with Triton 0.1% final (add 1 mL of 0.15% Triton) […]

{"columns": ["MOLECULE", "IC50"],
 "data": [
  ["COc1ccc(CN2CCN(C)CC2)c(Nc2nc3ccccc3nc2NS(=O)(=O)c2cccnc2)c1 [Example 81]", "1.9 µM"],
  ["COc1ccc(CC2CCN(C)CC2)c(Nc2nc3ccccc3nc2NS(=O)(=O)c2cn(C)cn2)c1 [Example 11]", "0.3 µM"],
  ["COc1ccc(CC2CCN(C)CC2)c(Nc2nc3ccccc3nc2NS(C)(=O)=O)c1 [Example 13]", "1 µM"]
]}
